Documented Efficacy across a set of molecules
# Organism: Mus musculus
# protocol: Percentage analgesic efficacy when compared to morphine
# Format: functional
# Parameters: concentration or dose not given beside the values
Report only the number, with the unit % understood.

-- ask Input Cl.O=C(CCC(c1ccc(F)cc1)c1ccc(F)cc1)NC1CCN(CCO)CC1 , output reported Efficacy.
-- reply 0

----------
# system-under-test: Voltage-dependent N-type calcium channel subunit alpha-1B (Rattus norvegicus)
# protocol: In vitro antagonism of N-type calcium channels expressed in PC12 cells was determined as the increase in intracellular calcium influx in the presence of 10 uM nifedipine
Property: pIC50; scope: individual compounds
Entry type: numeric. Quantity: pIC50, the -log10 of concentration in molar units.

Example entries begin here.
Cl.NC1CCN(C(=O)CCC(c2ccc(F)cc2)c2ccc(F)cc2)CC1 : 5.62
COc1ccc(C(C#N)(CCCNC2CCN(CCOc3ccccc3)CC2)C(C)C)cc1OC.Cl (stereo not drawn) : 5.51

-- ask Tell me pIC50 reported for COc1ccc(C(C#N)(CCCN2CCC(NCCOc3ccccc3)CC2)C(C)C)cc1OC.O=C(O)C(=O)O (stereo not drawn)
-- reply 6.40

----------
# Tested on: Mus musculus
# protocol: Analgesic activity was evaluated in mouse hotplate test; expressed as licking latency after 15 min of treatment at a dose of 10 ug intracerebroventricularly
# Assay type: functional
readout-kind: Latency (s)
API: value field is a number in s; no unit string.

-- ask Fill in reported Latency for this entry: COc1ccc(CCNC2CCN(C(=O)CCC(C#N)(c3ccc(OC)c(OC)c3)C(C)C)CC2)cc1OC.O=C(O)C(=O)O (stereo unspecified)
-- reply 16.5

-- ask Query Latency for COc1ccc(CCNC2CCN(CCCC(C#N)(c3ccccc3)C(C)C)CC2)cc1OC.O=C(O)C(=O)O (stereo unspecified)
-- reply 16.6

-- ask For COc1ccc(CCNC2CCN(CCCC(c3ccc(F)cc3)c3ccc(F)cc3)CC2)cc1OC.Cl , write its Latency.
-- reply 21.5

-- ask Retrieve Latency measured for CCCCNC1CCN(CCCC(c2ccccc2)c2ccccc2)CC1.O=C(O)C(=O)O and print it.
-- reply 22.6

-- ask Return the recorded Latency value; entry: COc1ccc(CCNC2CCN(CCCC(C#N)(c3ccc(OC)c(OC)c3)C(C)C)CC2)cc1OC.O=C(O)C(=O)O (stereo unspecified)
-- reply 17.2

-- ask Respond only with Latency recorded for COc1ccc(C(C#N)(CCC(=O)N2CCC(NCCOc3ccccc3)CC2)C(C)C)cc1OC.O=C(O)C(=O)O (stereo unspecified)
-- reply 15.7

----------
# Species: Mus musculus
# protocol: Percentage analgesic efficacy when compared to morphine
# Assay type: functional
# Design: concentration or dose not given beside the values
readout-kind: Efficacy (%)
Please reply with the bare figure in % and do not write the unit itself.

These recorded examples may help you get a feel for the data.
COc1ccc(CCNC2CCN(CCCC(c3ccccc3)c3ccccc3)CC2)cc1OC.O=C(O)C(=O)O : 0
COc1ccc(CCNC2CCN(C(=O)CCC(C#N)(c3ccc(OC)c(OC)c3)C(C)C)CC2)cc1OC.O=C(O)C(=O)O (centres undefined) : 0
CC(C)CC(N)C(=O)NC1CCN(C(=O)CCC(c2ccc(F)cc2)c2ccc(F)cc2)CC1.Cl (centres undefined) : 71

Kindly consider the entry below.
-- ask Answer with reported Efficacy of CCCCN1CCC(NCCCC(C#N)(c2ccc(OC)c(OC)c2)C(C)C)CC1.Cl (centres undefined)
-- reply 47
